Value source: patent US20050197371A1

- TESTED_TARGET: PDGFRB(DKIN) (PDGFR-β) (Homo sapiens, UniProt P09619)
- Construct: PDGFRB(DKIN)
- METHOD: Phage-display competitive binding assay, PDGFRB(DKIN)
- CONDITION_CONTEXT: T7 phage displaying human PDGFR-β, DKIN construct; read-out: Binding Assay: PDGFRB(DKIN)
pKd: −log10 of the molar value.
ENDPOINT: pKd

| INPUT_SMILES | RECORDED_MEASUREMENT |
| --- | --- |
| Cc1ccc(-c2cc(C(=O)Nc3ccc(NC(=O)Nc4cc(C(C)(C)C)on4)cc3)c(C)o2)cc1 | 5.00 to 6.00 |
| CC(C)(C)c1cc(NC(=O)Nc2ccc(NC(=O)c3ccccc3O)cc2)no1 | 5.00 to 6.00 |
| Cc1cnc(C(=O)Nc2ccc(NC(=O)Nc3cc(C(C)(C)C)on3)cc2)c(C(=O)O)n1 | > 7.00 |
| CC(C)(C)c1cc(NC(=O)Nc2ccc(OCc3ccccc3Cl)cc2)no1 | > 7.00 |
| COc1cc(C(=O)Nc2ccc(NC(=O)Nc3cc(C(C)(C)C)on3)cc2)nc(OC)n1 | > 7.00 |
| CC(C)CCOC(=O)c1nnsc1NC(=O)Nc1ccc(Br)cc1 | < 5.00 |
| O=C(Nc1ccc(Cl)cc1)Nc1ccno1 | 5.00 to 6.00 |
| CC(C)(C)c1cc(NC(=O)Nc2ccc(NC(=O)c3cccc4nsnc34)cc2)no1 | > 7.00 |
| CC(C)(C)c1cc(NC(=O)Nc2ccc(OCc3ccc4nonc4c3)cc2)no1 | 6.00 to 7.00 |
| CC(C)(C)c1cc(NC(=O)Nc2ccc(OCc3ccc(Cl)cc3)cc2)no1 | > 7.00 |
| CC(C)(C)c1cc(NC(=O)Nc2ccc(Cl)cc2Cl)no1 | 5.00 to 6.00 |
| CC(C)(C)c1cc(NC(=O)Nc2ccc(C(=O)Nc3ccc(F)cc3F)cc2)no1 | 6.00 to 7.00 |
| CCOC(=O)CCc1c(C)[nH]c(C(=O)Nc2ccc(NC(=O)Nc3cc(C(C)(C)C)on3)cc2)c1C | > 7.00 |
| CC(C)(C)c1cc(NC(=O)Nc2ccc(S(=O)(=O)Nc3ncccn3)cc2)no1 | < 5.00 |
| CSc1ccc(NC(=O)Nc2cc(C(C)(C)C)no2)cc1 | 6.00 to 7.00 |
| Cn1nc(C(C)(C)C)cc1NC(=O)Nc1ccc(OCc2ccccc2)cc1 | 6.00 to 7.00 |
| CC(C)(C)OC(=O)Nc1ccc(NC(=O)Nc2cc(C(C)(C)C)on2)cc1 | 6.00 to 7.00 |
| Cc1nc(N)cc(Nc2ccc(NC(=O)Nc3cc(C(C)(C)C)on3)cc2)n1 | 6.00 to 7.00 |

---

- TESTED_TARGET: PDGFRB(DKIN) (PDGFR-β) (Homo sapiens, UniProt P09619)
- Construct: PDGFRB(DKIN)
- METHOD: Phage-display competitive binding assay, PDGFRB(DKIN)
- CONDITION_CONTEXT: T7 phage displaying human PDGFR-β, DKIN construct; read-out: Binding Assay: PDGFRB(DKIN)
pKd: −log10 of the molar value.
Each entry below carries its recorded pKd.
ENDPOINT: pKd

| MOLECULE | TESTED_TARGET | RECORDED_MEASUREMENT |
| --- | --- | --- |
| CC(C)(C)c1cc(NC(=O)Nc2ccc(NC(=O)c3ccccc3)cc2)no1 | PDGFRB(DKIN) (PDGFR-β) (Homo sapiens, UniProt P09619) | > 7.00 |
| COc1cc(OC)nc(C2CCCCC2C(=O)Nc2ccc(NC(=O)Nc3cc(C(C)(C)C)on3)cc2)n1 (stereo not shown) | PDGFRB(DKIN) (PDGFR-β) (Homo sapiens, UniProt P09619) | 6.00 to 7.00 |
| Cc1ccc(-n2nc(C(C)(C)C)cc2NC(=O)Nc2ccc(OCCN3CCOC(CO)C3)c3ccccc23)cc1 (stereo not shown) | PDGFRB(DKIN) (PDGFR-β) (Homo sapiens, UniProt P09619) | 6.00 to 7.00 |
| CC(C)(C)c1cc(NC(=O)Nc2ccc(NC(=O)c3ccccn3)cc2)no1 | PDGFRB(DKIN) (PDGFR-β) (Homo sapiens, UniProt P09619) | > 7.00 |

---

- TESTED_TARGET: PDGFRB(DKIN) (PDGFR-β) (Homo sapiens)
- Construct: PDGFRB(DKIN)
- METHOD: Phage-display competitive binding assay, PDGFRB(DKIN)
- CONDITION_CONTEXT: T7 phage displaying human PDGFR-β, DKIN construct; read-out: Binding Assay: PDGFRB(DKIN)
pKd: −log10 of the molar value.
Each entry below carries its recorded pKd.
ENDPOINT: pKd

| COMPOUND | TESTED_TARGET | RECORDED_MEASUREMENT |
| --- | --- | --- |
| CC(C)c1cc(NC(=O)Nc2ccc(NC(=O)C3CCN(c4ncc(C(F)(F)F)cc4Cl)CC3)cc2)no1 [Compound N59] | PDGFRB(DKIN) (PDGFR-β) (Homo sapiens) | 6.00 to 7.00 |
| CC(C)(C)c1cc(NC(=O)Nc2ccc(NC(=O)c3cnc(Cl)c(Cl)c3)cc2)no1 [Compound N123] | PDGFRB(DKIN) (PDGFR-β) (Homo sapiens) | 5.00 to 6.00 |
| Cc1ccc(-n2nc(C(C)(C)C)cc2NC(=O)Nc2ccc(Br)cc2C(F)(F)F)cc1 [Compound H13] | PDGFRB(DKIN) (PDGFR-β) (Homo sapiens) | 5.00 to 6.00 |
| CC(C)(C)c1cc(NC(=O)Nc2ccc(NC(=O)c3cc(O)c4cccc(O)c4n3)cc2)no1 [Compound N176] | PDGFRB(DKIN) (PDGFR-β) (Homo sapiens) | 5.00 to 6.00 |
| Cc1nc(-c2ccc(Cl)cc2)sc1C(=O)Nc1ccc(NC(=O)Nc2cc(C(C)(C)C)on2)cc1 [Compound N184] | PDGFRB(DKIN) (PDGFR-β) (Homo sapiens) | 6.00 to 7.00 |
| CC(C)(C)c1cc(NC(=O)Nc2ccc(NC(=O)c3cccc(Cl)n3)cc2)no1 [Compound N4] | PDGFRB(DKIN) (PDGFR-β) (Homo sapiens) | > 7.00 |
| CCOC(=O)NN(C(=O)Nc1cc(C(C)(C)C)on1)c1ccc(OC)cc1 [Compound J13] | PDGFRB(DKIN) (PDGFR-β) (Homo sapiens) | < 5.00 |
| Cc1ccc(CNc2ccc(NC(=O)Nc3cc(C(C)(C)C)on3)cc2)cc1 [Compound O9] | PDGFRB(DKIN) (PDGFR-β) (Homo sapiens) | 6.00 to 7.00 |

---

- TESTED_TARGET: PDGFRB(DKIN) (PDGFR-β) (Homo sapiens, UniProt P09619)
- Construct: PDGFRB(DKIN)
- METHOD: Phage-display competitive binding assay, PDGFRB(DKIN)
- CONDITION_CONTEXT: T7 phage displaying human PDGFR-β, DKIN construct; read-out: Binding Assay: PDGFRB(DKIN)
- Procedure: The term “ND” represents non-determined values. Briefly, T7 phage displaying human PDGFR-β were incubated with an affinity matrix coated with known PDGFR-β inhibitor in the presence of various concentrations of the soluble competitor molecules.

| COMPOUND | TESTED_TARGET | Kd |
| --- | --- | --- |
| COc1cccc(COc2ccc(NC(=O)Nc3cc(C(C)(C)C)on3)cc2)c1 [Compound G13] | PDGFRB(DKIN) (PDGFR-β) (Homo sapiens, UniProt P09619) | < 0.1 µM |
| CC(C)(C)c1cc(NC(=O)Nc2ccc(OCCN3CCSCC3)cc2)no1 [Compound G53] | PDGFRB(DKIN) (PDGFR-β) (Homo sapiens, UniProt P09619) | 0.1 to 1 µM |
| Cc1nn(C)c(Cl)c1C(=O)Nc1ccc(NC(=O)Nc2cc(C(C)(C)C)on2)cc1 [Compound N116] | PDGFRB(DKIN) (PDGFR-β) (Homo sapiens, UniProt P09619) | < 0.1 µM |
| COc1cc2nc(Cl)nc(Nc3ccc(NC(=O)Nc4cc(C(C)(C)C)on4)cc3)c2cc1OC [Compound O1] | PDGFRB(DKIN) (PDGFR-β) (Homo sapiens, UniProt P09619) | 0.1 to 1 µM |

---

- TESTED_TARGET: PDGFRB(DKIN) (PDGFR-β) (Homo sapiens)
- Construct: PDGFRB(DKIN)
- METHOD: Phage-display competitive binding assay, PDGFRB(DKIN)
- CONDITION_CONTEXT: T7 phage displaying human PDGFR-β, DKIN construct; read-out: Binding Assay: PDGFRB(DKIN)
Each entry below carries its recorded Kd.
ENDPOINT: Kd

| INPUT_SMILES | ENDPOINT | RECORDED_MEASUREMENT |
| --- | --- | --- |
| Cc1ccc(NC(=O)Nc2cc(C(F)(F)F)cc(Cl)n2)cc1 | Kd | 100 to 1000 nM |
| CC(C)(C)c1cc(NC(=O)Nc2ccc(NC(=O)c3c(F)cccc3F)cc2)no1 | Kd | 1000 to 10000 nM |
| Cc1ccc(C(=O)Nc2ccc(NC(=O)Nc3cc(C(C)(C)C)on3)cc2)cc1 | Kd | < 100 nM |
| CNC(=O)c1ccc(NC(=O)Nc2cc(C(C)(C)C)on2)cc1 | Kd | 100 to 1000 nM |
| CC(C)(C)c1cc(NC(=O)Nc2ccc(NC(=O)c3ccc4cnccc4n3)cc2)no1 | Kd | < 100 nM |
| CC(C)(C)c1cc(NC(=O)Nc2ccc(OCc3ccccc3)cc2)no1 | Kd | < 100 nM |
| CC(C)(C)c1cc(NC(=O)Nc2ccc(NC(=O)c3cn4nc(Cl)ccc4n3)cc2)no1 | Kd | < 100 nM |
| CC(C)(C)c1cc(NC(=O)Nc2ccc(OCc3ccc(F)cc3)cc2)no1 | Kd | < 100 nM |
